Examples of binders with documented koff follow.
- ASSAY SYSTEM: T1, soluble heterodimeric hCD3ε/δ.mFc protein (human)
- T1 construct: also called soluble human CD3; soluble heterodimeric CD3 protein
- T1 chain 1: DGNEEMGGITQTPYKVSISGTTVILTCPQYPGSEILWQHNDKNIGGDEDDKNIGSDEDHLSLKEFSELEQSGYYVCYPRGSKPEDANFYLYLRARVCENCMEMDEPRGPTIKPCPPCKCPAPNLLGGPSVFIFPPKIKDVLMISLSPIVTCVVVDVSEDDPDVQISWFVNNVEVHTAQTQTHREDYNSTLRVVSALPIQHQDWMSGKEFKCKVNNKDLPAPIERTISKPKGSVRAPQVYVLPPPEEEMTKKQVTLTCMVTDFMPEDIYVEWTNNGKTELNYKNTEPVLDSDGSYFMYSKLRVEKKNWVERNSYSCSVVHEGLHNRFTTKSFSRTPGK
- T1 chain 2: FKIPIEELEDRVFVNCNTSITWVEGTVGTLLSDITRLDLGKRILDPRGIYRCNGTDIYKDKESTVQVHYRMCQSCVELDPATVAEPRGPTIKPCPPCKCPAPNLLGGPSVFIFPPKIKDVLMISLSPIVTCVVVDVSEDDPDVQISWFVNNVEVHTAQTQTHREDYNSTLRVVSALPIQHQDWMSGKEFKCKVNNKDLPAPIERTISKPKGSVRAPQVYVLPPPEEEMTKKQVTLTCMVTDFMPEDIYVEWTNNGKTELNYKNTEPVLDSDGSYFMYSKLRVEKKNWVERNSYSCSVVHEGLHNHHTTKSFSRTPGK
- EXPERIMENT SUMMARY: SPR MASS-1, 37 C, antigen-capture (hCD3ε/δ.mFc captured), antibody injected
Answer format: numeric, s⁻¹ implied, no suffix.

Please give measured koff of the following entry: BSPSMA/CD3-1000 (bispecific antibody, IgG4, V domains shown, modified (chimeric) IgG4 Fc domain; also called PSMA-VH-11810 x CD3-VH-G10) VH 1: QVQLVESGGGVVQPGRSLRLSCAASGFTFSSYGMHWVRQAPGKGLEWVAVISYAGNNKYYADSVKGRFTVSRDNSKKTLYLQMNSLRSEDTAVYYCAKDSYYDFLTDPDVLDIWGQGTMVTVSS VH 2: EVQLVESGGGLVQPGRSLRLSCAASGFTFDDYSMHWVRQAPGKGLEWVSGISWNSGSKGYADSVKGRFTISRDNAKNSLYLQMNSLRAEDTALYYCAKYGSGYGKFYYYGLDVWGQGTTVTVSS VL: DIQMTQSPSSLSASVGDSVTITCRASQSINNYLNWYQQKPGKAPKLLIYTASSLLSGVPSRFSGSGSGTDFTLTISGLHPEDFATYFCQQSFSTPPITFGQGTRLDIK 0.00637

Please give measured koff of the following entry: BSPSMA/CD3-1500 (bispecific antibody, IgG4, V domains shown, modified (chimeric) IgG4 Fc domain; also called PSMA-VH-11810 x CD3-VH-G15) VH 1: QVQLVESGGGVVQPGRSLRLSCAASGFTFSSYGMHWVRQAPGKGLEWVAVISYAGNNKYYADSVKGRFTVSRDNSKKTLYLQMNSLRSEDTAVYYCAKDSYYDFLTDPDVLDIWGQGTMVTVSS VH 2: EVQLVESGGGLVQPGRSLRLSCAASGFTFDDYSMHWVRQAPGKGLEWVSGISWNSGSKGYADSVKGRFTISRDNAKNSLYLQMNSLRAEDTALYYCAKDGSGYGKFYYYGLDVWGQGTTVTVSS VL: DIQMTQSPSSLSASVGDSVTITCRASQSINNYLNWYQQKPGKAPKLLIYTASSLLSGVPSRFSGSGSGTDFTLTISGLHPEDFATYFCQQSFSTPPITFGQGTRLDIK 0.00611

Please give measured koff of the following entry: BSPSMA/CD3-005 (bispecific antibody, IgG4, V domains shown, modified (chimeric) IgG4 Fc domain; also called PSMA-VH-11810 x CD3-VH-G20) VH 1: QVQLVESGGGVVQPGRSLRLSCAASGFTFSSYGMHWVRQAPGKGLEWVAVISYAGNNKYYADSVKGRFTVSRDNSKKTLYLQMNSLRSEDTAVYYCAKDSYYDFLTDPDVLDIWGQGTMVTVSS VH 2: EVQLVESGGGLVQPGRSLRLSCAASGFTFDDYSMHWVRQAPGKGLEWVSGISWNSGSIGYADSVKGRFTISRDNAKNSLYLQMNSLRAEDTALYYCAKYGSGYGKFYYYGMDVWGQGTTVTVSS VL: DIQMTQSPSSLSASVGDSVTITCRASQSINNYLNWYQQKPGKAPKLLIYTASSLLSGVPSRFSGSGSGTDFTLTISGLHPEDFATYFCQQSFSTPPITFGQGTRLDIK 0.00577

Please give measured koff of the following entry: BSPSMA/CD3-900 (bispecific antibody, IgG4, V domains shown, modified (chimeric) IgG4 Fc domain; also called PSMA-VH-11810 x CD3-VH-G9) VH 1: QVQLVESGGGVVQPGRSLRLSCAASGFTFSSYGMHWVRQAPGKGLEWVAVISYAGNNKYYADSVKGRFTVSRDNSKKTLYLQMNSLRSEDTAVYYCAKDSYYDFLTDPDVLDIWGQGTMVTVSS VH 2: EVQLVESGGGLVQPGRSLRLSCAASGFTFDDYSMHWVRQAPGKGLEWVSGISWNSGSKGYADSVKGRFTISRDNAKNSLYLQMNSLRAEDTALYYCAKDGSGYGKFYHYGLDVWGQGTTVTVSS VL: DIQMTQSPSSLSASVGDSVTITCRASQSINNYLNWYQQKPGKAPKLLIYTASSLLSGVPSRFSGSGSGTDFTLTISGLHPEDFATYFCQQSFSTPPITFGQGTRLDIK 0.00495

Please give measured koff of the following entry: BSPSMA/CD3-2100 (bispecific antibody, IgG4, V domains shown, modified (chimeric) IgG4 Fc domain; also called PSMA-VH-11810 x CD3-VH-G21) VH 1: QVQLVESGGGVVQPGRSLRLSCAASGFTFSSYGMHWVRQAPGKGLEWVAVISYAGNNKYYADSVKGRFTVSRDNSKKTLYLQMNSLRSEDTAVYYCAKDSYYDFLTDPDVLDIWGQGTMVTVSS VH 2: EVQLVESGGGLVQPGRSLRLSCAASGFTFDDYSMHWVRQAPGKGLEWVSGISWNSGSKGYADSVKGRFTISRDNAKNSLYLQMNSLRAEDTALYYCAKDGSGYGKFYYYGMDVWGQGTTVTVSS VL: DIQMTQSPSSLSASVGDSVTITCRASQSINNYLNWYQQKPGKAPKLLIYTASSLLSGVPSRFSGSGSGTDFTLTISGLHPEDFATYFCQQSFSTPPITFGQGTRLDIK 0.00234

Entry source: patent US20190127480A1
